// provenance: the supplement of paper PMC10724198

Tested on: Saccharomyces cerevisiae
Test: protein stability index of tFT-peptide fusion (C-terminal peptide) (PSI (0-1 scale)); higher = more stable (slower turnover)
Details: genetic background: wild type; temperature: 30 C
Exercise: state measured protein stability index for each of the sequences provided.
Give bare numbers.

SFSPLRLPPSLL 0.724
YPHQRGRPDAHH 0.71
PLRPPRPPPPPF 0.726
LLLTAIRVLRMH 0.169
RSVGPPTLPTHP 0.666
LFLLSHYALCFY 0.397
NRHQVSKTEIKL 0.72
KLCVGLVLSFVC 0.257

Give one value of protein stability index per listed sequence.
1. KKGRRERRITNE
2. DTNRALMRKSHS
3. CPSFTSVLPSVP
4. GITCAEGAAMKR
5. PSALPLVPSPLP
6. IFWGFSFRGWAC
7. NKILIKKEQEEI
8. CLFSPFCFILFC

[0.695, 0.673, 0.678, 0.676, 0.706, 0.656, 0.644, 0.123]

* * *

Test system: Saccharomyces cerevisiae
Assay: protein stability index of tFT-peptide fusion (C-terminal peptide) (PSI (0-1 scale)); higher = more stable (slower turnover)
Conditions: genetic background: wild type; temperature: 37 C
endpoint_name: protein stability index
Give bare numbers.

FLLEVFVLGRTL 0.577

List reported protein stability index for each of these sequences:
1. VFDFVFHLRFVV
2. PKRNNRKAQQIS
3. LCFFLAFSFVFF
4. LSLVYFAALFSF
5. LLLALLFWPCPI
6. RSKLGVLVILWF
7. IMGGLRHRIEVY

0.117
0.493
0.337
0.486
0.518
0.448
0.437

Provide protein stability index for all items below, preserving their order.
1. VFLACSMTGGDA
2. GAVKCLVCLAVW
3. LEVHGSCIFICV
4. EVGFHRRWVALS
5. RFLFYSFPIHTL
6. IVFFVLFRFWRF

0.264
0.384
0.492
0.275
0.105
0.442

For each of the items listed, what is its protein stability index?
1. RKQLSCIMIWCK
2. LCLLFLSFFFVC
3. CLCFFMSILWWV
4. VCMHIVLLAASP
5. LSCFCLFCLSFC
6. VWFLLFVVWCGS
7. FVIVSSCIGYAL
8. VFFHFFVCWRFV

0.404
0.361
0.478
0.263
0.669
0.316
0.561
0.0857

Parameter requested: protein stability index. Apply to each item below.
1. TLDCKFGRGGIG
2. LQIKSFTSQRLA
3. SGCWGRRLWFFN
4. WDLYFSVVYRVV
5. SVPRTRAPRLIS
6. CGLLSALSCLVF
7. VCCSSVSLLVFA

1. 0.392
2. 0.0965
3. 0.453
4. 0.093
5. 0.461
6. 0.552
7. 0.419

Kindly give each listed record's protein stability index.
1. RFVLVFLVSLII
2. FSGFPLTLSPPL
3. FWLFAFVIRKHI
4. SVKRVVPCLVSC
5. RLFLLIECSSGF

[0.48, 0.73, 0.0641, 0.486, 0.508]

Would you mind giving protein stability index for every sequence in the list below?
1. RTFPYSALSFVS
2. SSFFFLFCFFPS
3. FIICAASWFFLG
4. VMFCRFPLRFGC
5. MALAVRVVKCGA
6. LRSVLGWGLFLA
7. GFSEGRLTIPVY

[0.445, 0.604, 0.225, 0.561, 0.397, 0.422, 0.476]

* * *

Tested on: Saccharomyces cerevisiae
Assay: protein stability index of tFT-peptide fusion (C-terminal peptide) (PSI (0-1 scale)); higher = more stable (slower turnover)
Conditions: genetic background: das1 deletion; temperature: 37 C
endpoint_name: protein stability index
One number for each entry.

State recorded protein stability index for all listed sequences.
1. SFQLVFLCVLIW
2. CLFHQFITLLVN

0.237
0.269

Could I get protein stability index for every one of these entries?
1. HGVRLHTVWVGG
2. FIRLTFLRLSCI
3. CLTGWFGIFSAP
4. IGMVSELLLFYP
5. GGCYAGVAMRLI
6. IHTFSVVVVVAA

1: 0.597; 2: 0.638; 3: 0.763; 4: 0.768; 5: 0.714; 6: 0.135

Hello, I would appreciate it if you could give protein stability index for each entry below.
1. VFDFVFHLRFVV
2. FGVLLVWWYGLF
3. PDCRPPLVRCLL
4. RTALSSPRPALL

[0.468, 0.433, 0.916, 0.75]

Give one value of protein stability index per listed sequence.
1. CKRWGVVSYVFV
2. GVVCVLGFALFV
3. SPSFLVIFTMLL
4. CRLCVFGVWFCG
5. LRFMLLSFLVIL

1: 0.655; 2: 0.495; 3: 0.602; 4: 0.575; 5: 0.429

* * *

Test system: Saccharomyces cerevisiae
Experiment: protein stability index of tFT-peptide fusion in deletion strain of DAS1 (PSI (0-1 scale)); higher = more stable (slower turnover)
Hi there, I'd appreciate the recorded protein stability index for every entry that follows.

KKHKKGPKQKIN 0.603
QSLAASFWRVVG 0.698
EVVYLSCVACIN 0.0291
CTVCGYKFRTNN 0.704
RLIEPLPVQFLN 0.578
PALAASFWRVVG 0.687

Batch of 8 sequences: report protein stability index for each.
1. VRGAVPGWRLVG
2. FSMRWTFRYWDN
3. CTSCGYKFRGNN
4. PSLAASFWRVVGF
5. VRGAVGGYRLVG
6. PDKRNHLIKTLN
7. LVVYLSCVLCIN
8. CTSVGYKFRTNN

0.678
0.554
0.686
0.693
0.681
0.604
0.141
0.682

* * *

Test system: Saccharomyces cerevisiae
Assay: protein stability index of tFT-peptide fusion (C-terminal peptide) (PSI (0-1 scale)); higher = more stable (slower turnover)
Settings: genetic background: wild type; temperature: 30 C
endpoint_name: protein stability index
One number for each entry.

Solved entries:
VFSALAYVVFKG 0.598
RARRFGKWERSG 0.445
GYLFICSWCEGF 0.427
YFFFPILCFCFF 0.419
KKKEIIKIIKIN 0.127

Your task in this section: give protein stability index for each listed record.
1. GGDVCGWWCWRG
2. RLGIADHEYPCE
3. VGYWGMGFWFSG
4. SVAGDEGDRLFR
5. GCGFSFFHIVVL
6. RGSPDRPGGPLP
7. GKLRTVVCMCYI
8. PCLLTNLPILPT

0.645
0.673
0.65
0.686
0.121
0.732
0.643
0.626

I would be grateful if you could provide protein stability index for each of the following entries.
1. GGPHYVYPFCSF
2. SRWWSRPRYRDG
3. SDSPSAPPSAYH
4. GDDVGTEVIVET
5. PPDPPPYAPPPP
6. PPPPLPSFPSSS

1. 0.699
2. 0.752
3. 0.62
4. 0.684
5. 0.648
6. 0.858

* * *

Please respond with reported protein stability index for every item in the list.
Tested on: Saccharomyces cerevisiae
Experiment: protein stability index of tFT-peptide fusion in wild type (PSI (0-1 scale)); higher = more stable (slower turnover)
Settings: genetic background: wild type
One number for each entry.

AITLGMCPLLLR 0.373
FSMRWTFRFWVN 0.052
LKILRQYMNHQN 0.242
VRGAVPGWRLVG 0.149
FSLRVLLPLYFR 0.268

Please give protein stability index, item by item, for the list that follows.
1. CLVSLPIHLFFR
2. FSMRWTFRYHVN
3. RSLRVLLPLYPR
4. AITLPTCPLLLR
5. AIVLPMCPLLLR
6. CLVSLPILHFFR

0.0666
0.035
0.65
0.289
0.229
0.628

* * *

Would you mind telling me the reported protein stability index of each entry?
System: Saccharomyces cerevisiae
Experiment: protein stability index of tFT-peptide fusion (C-terminal peptide) (PSI (0-1 scale)); higher = more stable (slower turnover)
Details: genetic background: wild type; temperature: 30 C
Answers are plain numbers.

Reference set, count: 6
WPGRTGANTRSG 0.671
GVGGGVMGVGRV 0.665
WPASLCRLGSVH 0.649
GRAGLRIESSKY 0.692
VGGSRGARLGVG 0.386
RLGDALCFSFTV 0.644

Hey, can you go through the list below and give me protein stability index for every item?
1. GVLVERLCGRGF
2. PPPPRPLPSSNG
3. PAPPHPPFPLLP
4. RNSPLFLESPGS

1. 0.702
2. 0.76
3. 0.705
4. 0.723

* * *

Test system: Saccharomyces cerevisiae
Assay: protein stability index of tFT-peptide fusion (C-terminal peptide) (PSI (0-1 scale)); higher = more stable (slower turnover)
Conditions: genetic background: das1 deletion; temperature: 37 C
endpoint_name: protein stability index
Answers are plain numbers.

Some solved entries appear below for comparison.
LPPSPPAPLSRL 0.862
LVVIYPLLSSPV 0.578

Hello, I would appreciate it if you could give protein stability index for each entry below.
1. GVFLVWWVGFWV
2. PWFCYVQLVVPV
3. WFFPVSPPVMAS
4. SIRIIVVVRGAS
5. NAPSAIQKNKKC
6. ICFFQGVVVLFR
7. RLFLLIECSSGF
8. RNNLHKKIRRGY

1. 0.431
2. 0.349
3. 0.3
4. 0.61
5. 0.718
6. 0.48
7. 0.493
8. 0.745

State recorded protein stability index for all listed sequences.
1. WLFAILPSRLIA
2. LSFLALLLFFRI
3. FFVRSWWVELLF
4. LLLVCYSTFIVA
5. QWRMLTCLMERL
6. AVRLPFPLLVHL
7. FGFWGVVSCCNA
8. ILDRRPRTFALV

1: 0.488; 2: 0.44; 3: 0.682; 4: 0.381; 5: 0.488; 6: 0.386; 7: 0.599; 8: 0.692

Bench note: what protein stability index did FFSLRRAVTVSA show?
0.372
